Entries and their measured Kd follow.
Molecular target: D614G Spike (SARS-CoV-2, UniProt P0DTC2 16-1213)

Worked cases, answers included:
| binder | observed-measurement |
| --- | --- |
| Ab 23 (scFv, V domains shown) VH: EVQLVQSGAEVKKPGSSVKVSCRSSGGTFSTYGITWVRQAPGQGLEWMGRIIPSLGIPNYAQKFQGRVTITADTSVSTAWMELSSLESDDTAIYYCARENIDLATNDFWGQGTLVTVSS VL: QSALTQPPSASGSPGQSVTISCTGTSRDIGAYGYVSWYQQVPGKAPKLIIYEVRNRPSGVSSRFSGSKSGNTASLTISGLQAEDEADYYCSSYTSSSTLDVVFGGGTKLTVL | 8.82 pM |
| Ab_13 (scFv, V domains shown) VH: QVTLKESGPKLVKPTQTLTLTCTFSGFSLSTSGVGVGWIRQPPGKALEWLALIYWDDDKRYSPSLKSRLTIAKDTSKYQVVLTMTNMDPVDTATYYCARISGSGYFYPFDIWGQGTMVTVSA VL: NFMLTQPHSVSESPGKTVTISCTRSSGSIASNYVQWYQQRPGSAPTTVIYEDNQRPSGVPDRFSGSIDSSSNSASLTISGLKTEDEADYYCQSYDSSNLWVFGGGTKLTVL | 8.1 pM |

Let's switch to this binder now.
## Input // query Kd value for entry S1-RBD-R3-T1-B12 Ab (Ab_31) (scFv, V domains shown) VH: QVQLVQSGAEVKKPGSSVKVSCKASGGTFSSYTISWVRQAPGQGLEWMGGIIPILGTPNYAQKFQDRVAITADKSTSTAYMELSSLRSEDTAVYYCAVGSGWYSGFDYWGQGTLVTVSS VL: NFMLTQPHSVSESPGKTVTISCTGSSGSIASNYVQWYQQRPGSAPTTVIYEDSQRPSGVPDRFSGSIDSSSNSASLTISGLKTEDEADYYCQSFHNSNPVIFGGGTKLTVL
## Output 9.03 pM

Origin of values: patent US20230374114A1
